biological target: aryl hydrocarbon receptor (AHR) (Homo sapiens, UniProt P35869); assay: DRE-Luciferase reporter high-throughput screen (AHR antagonist, VAF347-activated)
pIC50: −log10 of the molar value.
measured_endpoint: pIC50

Lookup result for Cn1c(COc2cccc3ccccc23)nc2ccccc21 [67B] ; measured pIC50: 5.70 to 6.00

Lookup result for Cc1c(Cl)c(=O)oc2cc(OCc3ccc(Cl)cc3)ccc12 [compound 137] ; measured pIC50: 6.00 to 6.30

Lookup result for CCc1cccc2c(-c3cn4cc(S(N)(=O)=O)ccc4n3)c[nH]c12 [compound 100] ; measured pIC50: > 6.70

Lookup result for CSc1cc(CSc2ccc(Cl)cc2)nc(-c2ccccn2)n1 [85A] ; measured pIC50: 5.70 to 6.00

Lookup result for O=C(CNC1=NS(=O)(=O)c2ccccc21)OCc1cn(-c2ccccc2)nc1-c1ccccc1 [58B] ; measured pIC50: < 5.70

Lookup result for Fc1ccccc1OCc1cnn(-c2ccccc2)c1 [54B] ; measured pIC50: 6.00 to 6.30

Lookup result for Cc1cc(C)nc(N2CCN(c3ccc(Cl)cc3)CC2)n1 [70A] ; measured pIC50: < 5.70

Lookup result for CN(C)C(=O)Oc1ccc(-c2cn3cc(C(F)(F)F)ccc3n2)cc1 [compound 103] ; measured pIC50: 6.00 to 6.30

Lookup result for COc1ccccc1N(C(=O)c1ccc(O)nc1)c1nc(-c2ccc([N+](=O)[O-])cc2)cs1 [compound 56] ; measured pIC50: 6.30 to 6.70

Lookup result for Cc1cc(C)c2c(NCc3ccccc3F)[nH]nc2n1 [122A] ; measured pIC50: 5.70 to 6.00

Lookup result for N#Cc1ccccc1COc1ccc(-n2cnnn2)cc1 [compound 154] ; measured pIC50: 6.00 to 6.30

Lookup result for COc1cc([N+](=O)[O-])ccc1NC(=O)Nc1nc2c(s1)CCCC2 [compound 121] ; measured pIC50: 6.00 to 6.30

Lookup result for N#Cc1c(N)c(-c2ccc(F)cc2)cn2c1nc1ccccc12 [120B] ; measured pIC50: 6.00 to 6.30

Lookup result for Cc1c(COc2ccccc2C#N)noc1-c1ccc(F)cc1 [129A] ; measured pIC50: 5.70 to 6.00

Lookup result for Brc1ccc(-c2ccc(NC3CCCC3)nn2)cc1 [49B] ; measured pIC50: 5.70 to 6.00

###

Target: aryl hydrocarbon receptor (AHR) (Homo sapiens)
Sequence (P35869 11-848): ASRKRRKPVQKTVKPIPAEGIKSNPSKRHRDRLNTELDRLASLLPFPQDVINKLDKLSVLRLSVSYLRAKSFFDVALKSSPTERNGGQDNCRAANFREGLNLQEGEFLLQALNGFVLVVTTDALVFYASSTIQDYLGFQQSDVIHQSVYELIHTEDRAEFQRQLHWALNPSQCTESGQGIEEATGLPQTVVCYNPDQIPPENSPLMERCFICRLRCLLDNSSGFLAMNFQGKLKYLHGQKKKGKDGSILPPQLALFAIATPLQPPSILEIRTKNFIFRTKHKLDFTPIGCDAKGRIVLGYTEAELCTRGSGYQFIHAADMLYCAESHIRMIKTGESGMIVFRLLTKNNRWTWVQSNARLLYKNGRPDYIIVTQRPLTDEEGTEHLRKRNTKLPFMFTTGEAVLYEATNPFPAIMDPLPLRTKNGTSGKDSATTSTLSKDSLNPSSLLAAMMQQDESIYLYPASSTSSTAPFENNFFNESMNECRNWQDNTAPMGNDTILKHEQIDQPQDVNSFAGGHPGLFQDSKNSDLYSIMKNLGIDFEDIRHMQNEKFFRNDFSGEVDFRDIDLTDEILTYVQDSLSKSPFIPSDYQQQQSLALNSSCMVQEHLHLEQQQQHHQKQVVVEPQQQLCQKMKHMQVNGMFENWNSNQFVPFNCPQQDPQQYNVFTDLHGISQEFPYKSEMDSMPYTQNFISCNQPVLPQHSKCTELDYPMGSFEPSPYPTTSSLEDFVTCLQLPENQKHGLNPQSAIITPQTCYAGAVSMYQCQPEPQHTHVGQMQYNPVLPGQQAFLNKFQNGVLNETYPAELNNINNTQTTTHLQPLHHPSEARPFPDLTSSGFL
Experiment: DRE-Luciferase reporter high-throughput screen (AHR antagonist, VAF347-activated)
pIC50: −log10 of the molar value.
Could you please report measured pIC50 for the items listed next?

Lookup result for `Cc1ccn2c(-c3csc(Nc4ccccn4)n3)c(C)nc2c1` ; measured pIC50: 6.00 to 6.30

Lookup result for `COc1ccc(NC(=O)CNc2ccc(C(F)(F)F)cc2)cc1Cl` ; measured pIC50: 6.00 to 6.30

Lookup result for Cc1c(C(N)=O)nnc2cc(-c3ccccc3)nn12 [75B] ; measured pIC50: 5.70 to 6.00

Lookup result for `COC(=O)c1cccc(NC(=O)c2nsc3ccccc23)c1` ; measured pIC50: 6.30 to 6.70

Lookup result for FC(F)(F)c1ccc(CSc2nccc(-c3cccnc3)n2)cc1 [46B] ; measured pIC50: 6.30 to 6.70

Lookup result for `O=C(Nc1ccc(-c2nnc3n2CCCCC3)cc1)c1cccc2cccnc12` ; measured pIC50: 6.30 to 6.70

Lookup result for Cc1cccn2c(=O)c3cc(C(=O)NCc4ccccc4Cl)sc3nc12 [125B] ; measured pIC50: 6.30 to 6.70

Lookup result for COc1ccc(C2=Nn3c(nc4ccsc4c3=O)SC2)cc1 [126B] ; measured pIC50: 5.70 to 6.00

###

target: aryl hydrocarbon receptor (AHR) (Homo sapiens, UniProt P35869); test: DRE-Luciferase reporter high-throughput screen (AHR antagonist, VAF347-activated)
measured_endpoint: IC50

Lookup result for O=C1CC(c2ccc(Cl)cc2)CN1C(=O)Nc1ccccc1 (stereo not shown) [103B] ; measured IC50: 500 to 1000 nM

Lookup result for Cc1nc(N2CCN(c3ccccc3F)CC2)nc2c1C(=O)CCC2 [77A] ; measured IC50: 1000 to 2000 nM

Lookup result for COc1cccc2c1cc1c(O)nnc(C)n12 [185A] ; measured IC50: > 2000 nM

Lookup result for CN(C)c1oc(-c2ccc(COc3ccccc3)o2)nc1C#N [151A] ; measured IC50: 1000 to 2000 nM

Lookup result for `Nc1c(-c2nc(-c3ccccc3)cs2)nnn1-c1ccc(F)cc1` ; measured IC50: 500 to 1000 nM

Lookup result for Cc1nccc(-c2cc(-c3ccc(Cl)cc3Cl)no2)n1 [131A] ; measured IC50: 1000 to 2000 nM

Lookup result for CN(Cc1ccn(C)n1)C(=O)c1cc(-c2ccc(Cl)c(Cl)c2)[nH]n1 [104A] ; measured IC50: > 2000 nM

###

target: aryl hydrocarbon receptor (AHR) (Homo sapiens, UniProt P35869); experiment: DRE-Luciferase reporter high-throughput screen (AHR antagonist, VAF347-activated)
pIC50: −log10 of the molar value.
measured_endpoint: pIC50

Entry COC(=O)c1ccc(NC(=O)CCn2nc(C)cc2C)s1 [108A] : pIC50 on aryl hydrocarbon receptor (AHR) (Homo sapiens, UniProt P35869) = < 5.70

Entry c1ccc(-c2ccc(OCc3cn4ccsc4n3)cc2)cc1 [96A] : pIC50 on aryl hydrocarbon receptor (AHR) (Homo sapiens, UniProt P35869) = 5.70 to 6.00

Entry `COc1ccccc1C(=O)Nc1cccc(-c2cn3ccsc3n2)c1` : pIC50 on aryl hydrocarbon receptor (AHR) (Homo sapiens, UniProt P35869) = 6.00 to 6.30

Entry `O=C(Nc1cccc(Cl)c1)c1ccc(-n2cccn2)c([N+](=O)[O-])c1` : pIC50 on aryl hydrocarbon receptor (AHR) (Homo sapiens, UniProt P35869) = 5.70 to 6.00

Entry CC(=O)c1cc(NC(=O)c2ccc(Cl)cc2)c(=O)n(Cc2ccc(Cl)cc2)c1C [29A] : pIC50 on aryl hydrocarbon receptor (AHR) (Homo sapiens, UniProt P35869) = 5.70 to 6.00

Entry COc1ccc(Cl)cc1C(=O)NCc1ccc(Cl)cc1 [89B] : pIC50 on aryl hydrocarbon receptor (AHR) (Homo sapiens, UniProt P35869) = 5.70 to 6.00

Entry c1ccc(-c2nc(COc3cccc(-n4cnnn4)c3)cs2)cc1 [54A] : pIC50 on aryl hydrocarbon receptor (AHR) (Homo sapiens, UniProt P35869) = 5.70 to 6.00

Entry Cc1ccc2nc(C3=C(N)N(CC(C)C)CC3=O)[nH]c2c1 [113A] : pIC50 on aryl hydrocarbon receptor (AHR) (Homo sapiens, UniProt P35869) = 5.70 to 6.00

Entry Cc1ccc(NC(=O)c2cc(C(C)C)n[nH]2)cc1 [24A] : pIC50 on aryl hydrocarbon receptor (AHR) (Homo sapiens, UniProt P35869) = < 5.70

Entry `O=C(Nc1cnc2ccc(C(F)(F)F)cn2c1=O)OCc1ccccc1` : pIC50 on aryl hydrocarbon receptor (AHR) (Homo sapiens, UniProt P35869) = 6.00 to 6.30

Entry `Cc1ccc(N)cc1Nc1nccc(-c2cccnc2)n1` : pIC50 on aryl hydrocarbon receptor (AHR) (Homo sapiens, UniProt P35869) = 6.00 to 6.30

Entry Cc1ccc(-c2nc(Cn3cnc(C#N)n3)co2)c(C)c1 [134A] : pIC50 on aryl hydrocarbon receptor (AHR) (Homo sapiens, UniProt P35869) = 5.70 to 6.00
